- Test system: Prot. rettgeri M 1771
Where a name gives a salt, the structure may show the parent alone.
Assign MIC to each entry below.
Answers are plain numbers, in µg/mL.

Known results for molecules:
| molecule | measured_result |
| --- | --- |
| CC(C)(N)C1CCN(c2nc3c(cc2F)c(=O)c(C(=O)O)cn3C2CC2)C1 (stereo not shown) [reference compound] | 0.4 |
| COc1c(N2CC[C@H](C(C)(C)N)C2)c(F)cc2c(=O)c(C(=O)O)cn(C3CC3)c12 | 0.8 |
| COc1c(N2CC[C@@H](C(C)(C)N)C2)c(F)cc2c(=O)c(C(=O)O)cn(C3CC3)c12 | 0.4 |

Now for a further molecule.
Per the records, this molecule ( CC(C)(N)[C@@H]1CCN(c2nc3c(cc2F)c(=O)c(C(=O)O)cn3C2CC2)C1 [Example 4, monohydrochloride] ) has MIC equal to 0.4

====

MIC data for Klebs. pneumoniae MGH-2 follow.
Structures can show the parent of a compound that is named as a salt.
Answers are plain numbers, in µg/mL.

Known results for molecules:
| molecule | measured_result |
| --- | --- |
| CC(C)(N)C1CCN(c2nc3c(cc2F)c(=O)c(C(=O)O)cn3C2CC2)C1 (centres unmarked) [reference compound] | 0.2 |
| Cc1c(F)c(N2CC[C@H](C(C)(C)N)C2)cc2c1c(=O)c(C(=O)O)cn2-c1ccc(F)cc1F | 0.2 |
| CC(C)(N)[C@@H]1CCN(c2cc3c(c(N)c2F)c(=O)c(C(=O)O)cn3C2CC2)C1 | 0.8 |
| COc1c(N2CC[C@H](C(C)(C)N)C2)c(F)cc2c(=O)c(C(=O)O)cn(C3CC3)c12 | 0.4 |

Now for a further molecule.
Per the records, this molecule ( CC(C)(N)[C@H]1CCN(c2c(F)cc3c(=O)c(C(=O)O)cn(C4CC4)c3c2Cl)C1 [Example 1, monohydrochloride] ) has MIC equal to 0.2

====

MIC data for Klebs. pneumoniae MGH-2 follow.
Where a name gives a salt, the structure may show the parent alone.
One number for each entry, in µg/mL.

Known results for molecules:
| molecule | MIC (µg/mL) |
| --- | --- |
| COc1c(N2CC[C@@H](C(C)(C)N)C2)c(F)cc2c(=O)c(C(=O)O)cn(C3CC3)c12 | 0.2 |
| CC(C)(N)[C@@H]1CCN(c2nc3c(cc2F)c(=O)c(C(=O)O)cn3C2CC2)C1 [Example 4, monohydrochloride] | 0.2 |
| Cc1c(F)c(N2CC[C@@H](C(C)(C)N)C2)cc2c1c(=O)c(C(=O)O)cn2-c1ccc(F)cc1F | 0.8 |
| CC(C)(N)[C@@H]1CCN(c2c(F)cc3c(=O)c(C(=O)O)cn(C4CC4)c3c2Cl)C1 [Example 2, monohydrochloride] | 0.1 |
| CC(C)(N)[C@H]1CCN(c2c(F)cc3c(=O)c(C(=O)O)cn(C4CC4)c3c2F)C1 | 0.2 |
| CC(C)(N)[C@H]1CCN(c2nc3c(cc2F)c(=O)c(C(=O)O)cn3C2CC2)C1.Cl | 0.4 |

Now for a further molecule.
Per the records, this molecule ( CNC(C)(C)[C@@H]1CCN(c2c(F)cc3c(=O)c(C(=O)O)cn(C4CC4)c3c2Cl)C1 [Example 6, monohydrochloride] ) has MIC equal to 0.4
